Where these numbers come from: the supplement of paper PMC6757056

B1: library; a variant is named by its letters at N, in order (parent)
chain: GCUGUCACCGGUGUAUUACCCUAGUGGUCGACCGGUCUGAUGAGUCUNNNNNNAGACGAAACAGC

Variants of: B1
protocolText: normalized RNA/DNA level without ligand (relative to sTRSVctl = 100) (log10 (% of sTRSVctl)); ligand: hypoxanthine (xanthine aptamer); higher = less ribozyme self-cleavage, higher mRNA level
condition: HEK293T, reporter: mCherry (pCS4076), ligand present: no
The reader will find reported normalized RNA/DNA level without ligand (log10) values listed item by item below.
Answer with a bare number; do not write a unit.

Sample answers from the record:
variantLabel | assayValue
CUGUGA | 1.82
UAGAAA | 1.7
AAUUUA | 1.83
AAAAAU | 1.74
CAUAUG | 1.86

### Prompt I have this variant here, `ACAACU` , and I need its recorded normalized RNA/DNA level without ligand (log10).
### Response 1.83

### Prompt I have this variant here, `AAUACC` , and I need its recorded normalized RNA/DNA level without ligand (log10).
### Response 1.89

### Prompt I have this variant here, `CUACAC` , and I need its recorded normalized RNA/DNA level without ligand (log10).
### Response 1.77
